assayExplanation: Cell cytotoxicity assay A549 (CellTiter-Glo, 72 hours)
Format: cell-based
conditionSummary: human, A549 cells, Table 3; 72 hours, top concentration of 50 μM; read-out: Cytotox A549 EC50
assayReadout: EC50 at 72 h (µM)
The answer is to be given in µM; state only the numeric part.

See these solved cases before continuing.
Cn1cc(S(=O)(=O)c2ccc(OC(F)F)c(-c3nn(C)cc3NC(=O)c3cnn4cccnc34)c2)cn1 ... 22
Cn1cc(NC(=O)c2cnn3cccnc23)c(-c2cc(S(=O)(=O)C3COC3)ccc2OC(F)F)n1 ... 44

Problem: Identify the reported EC50 at 72 h for the following entry. Cn1cc(NC(=O)c2cnn3cccnc23)c(-c2cc(S(=O)(=O)C3CCC3)ccc2OC(F)F)n1
Result: 25.5

----------
testedTarget: recombinant human JAK1 kinase domain protein (Residues 854-1154) (Homo sapiens, UniProt P23458)
Construct: human JAK1 kinase domain protein (Residues 854-1154)
Sequence (P23458 854-1154): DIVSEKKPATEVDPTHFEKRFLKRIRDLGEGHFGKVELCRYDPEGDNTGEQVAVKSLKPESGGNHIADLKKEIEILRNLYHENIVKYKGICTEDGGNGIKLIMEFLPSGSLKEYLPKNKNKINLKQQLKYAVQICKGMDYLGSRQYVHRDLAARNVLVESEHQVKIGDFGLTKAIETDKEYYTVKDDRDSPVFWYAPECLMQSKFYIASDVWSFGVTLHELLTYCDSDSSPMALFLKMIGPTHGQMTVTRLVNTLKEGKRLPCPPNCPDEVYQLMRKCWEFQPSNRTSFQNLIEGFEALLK
assayExplanation: JAK1 biochemical assay (microfluidic mobility shift, peptide phosphorylation)
conditionSummary: 25 μM ATP, 1 nM total JAK1; read-out: Enzyme JAK1 Ki
pKi by entry:
Scale for pKi: -log10 of concentration given in mol/L; no unit attached.

CC(=O)N1CC(S(=O)(=O)c2ccc(OC(F)F)c(-c3nn(C)cc3NC(=O)c3cnn4cccnc34)c2)C1 ... 9.23
CN1CCCC1CCn1cc(S(=O)(=O)c2ccc(OC(F)F)c(-c3nn(C)cc3NC(=O)c3cnn4cccnc34)c2)cn1 (stereo in doubt) [Example 57] ... 9.24

Problem: Dear colleague, please send me the reported pKi for Cn1cc(NC(=O)c2cnn3cccnc23)c(-c2cc(S(=O)(=O)c3cccc(CCN)c3)ccc2OC(F)F)n1 when you can.
Result: 9.37

Problem: Name the recorded pKi of the item CC(C)OC(=O)n1cc(NC(=O)c2cnn3cccnc23)c(-c2cc(S(C)(=O)=O)ccc2OC(F)F)n1 in your answer.
Result: 9.51

----------
assayExplanation: Cell cytotoxicity assay HEK-293T (CellTiter-Glo, 72 hours)
Type: cell-based
conditionSummary: human, HEK-293T cells, Table 3; 72 hours, top concentration of 50 μM; read-out: Cytotox K-293 EC50
assayReadout: EC50 at 72 h (µM)
Respond numerically; units are µM and should not be typed.

CN(C)CCn1cc(S(=O)(=O)c2ccc(OC(F)F)c(-c3nn(C)cc3NC(=O)c3cnn4cccnc34)c2)cn1 ... 14

Problem: Give the measured EC50 at 72 h for COCCS(=O)(=O)c1ccc(OC(F)F)c(-c2nn(C)cc2NC(=O)c2cnn3cccnc23)c1
Result: 32

Problem: Give the reported EC50 at 72 h for this compound. COc1cccc(S(=O)(=O)c2ccc(OC(F)F)c(-c3nn(C)cc3NC(=O)c3cnn4cccnc34)c2)c1
Result: 36

Problem: Please report the measured EC50 at 72 h for CN(C)CCS(=O)(=O)c1ccc(OC(F)F)c(-c2nn(C)cc2NC(=O)c2cnn3cccnc23)c1
Result: 6.9

----------
testedTarget: recombinant human JAK1 kinase domain protein (Residues 854-1154) (Homo sapiens)
Construct: human JAK1 kinase domain protein (Residues 854-1154)
assayExplanation: JAK1 biochemical assay (microfluidic mobility shift, peptide phosphorylation)
conditionSummary: 25 μM ATP, 1 nM total JAK1; read-out: Enzyme JAK1 Ki
Below, each entry is listed alongside its reported Ki.
Give the number; nM is assumed, so skip it.

Cn1cc(NC(=O)c2cnn3cccnc23)c(-c2cc(S(=O)(=O)c3cnn(C4CN5CCC4CC5)c3)ccc2OC(F)F)n1 (stereo not shown) ... 0.93
Cn1cc(NC(=O)c2cnn3cccnc23)c(-c2cc(S(=O)(=O)N3CCC3)ccc2OC(F)F)n1 ... 0.22
Cn1cc(NC(=O)c2cnn3cccnc23)c(-c2cc(S(=O)(=O)CCCO)ccc2OC(F)F)n1 ... 0.58

Problem: Give recorded Ki. CN1CCN(CCn2cc(S(=O)(=O)c3ccc(OC(F)F)c(-c4nn(C)cc4NC(=O)c4cnn5cccnc45)c3)cn2)CC1
Result: 1.2

Problem: Name the recorded Ki of the item N#CCn1cc(NC(=O)c2cnn3cccnc23)c(-c2cc(S(=O)(=O)C3CC3)ccc2OC(F)F)n1 in your answer.
Result: 0.71

Problem: For the compound CN1CCCC1CCn1cc(S(=O)(=O)c2ccc(OC(F)F)c(-c3nn(C)cc3NC(=O)c3cnn4cccnc34)c2)cn1 (stereo in doubt) [Example 56] , report Ki.
Result: 0.71

Problem: Give the value of Ki reported for the following: CNS(=O)(=O)c1ccc(OC(F)F)c(-c2nn(C)cc2NC(=O)c2cnn3cccnc23)c1
Result: 0.16

----------
Tested on: Jurkat clone E6-1 cells
assayExplanation: Cell cytotoxicity assay Jurkat (CellTiter-Glo, 72 hours)
Type: cell-based
conditionSummary: Table 3; 72 hours, top concentration of 50 μM; read-out: Cytotox Jurkat EC50
assayReadout: pEC50
Bear in mind: pEC50 is minus log10 of a mol/L concentration; give just that figure.

Problem: Give the measured pEC50 for CC(CO)S(=O)(=O)c1ccc(OC(F)F)c(-c2nn(C)cc2NC(=O)c2cnn3cccnc23)c1 (single isomer, unassigned)
Result: 4.43

----------
Readings of Ki for the listed compounds
testedTarget: Recombinant human JAK2 kinase domain protein (Residues 812-1132) (Homo sapiens)
Sequence (O60674 812-1132): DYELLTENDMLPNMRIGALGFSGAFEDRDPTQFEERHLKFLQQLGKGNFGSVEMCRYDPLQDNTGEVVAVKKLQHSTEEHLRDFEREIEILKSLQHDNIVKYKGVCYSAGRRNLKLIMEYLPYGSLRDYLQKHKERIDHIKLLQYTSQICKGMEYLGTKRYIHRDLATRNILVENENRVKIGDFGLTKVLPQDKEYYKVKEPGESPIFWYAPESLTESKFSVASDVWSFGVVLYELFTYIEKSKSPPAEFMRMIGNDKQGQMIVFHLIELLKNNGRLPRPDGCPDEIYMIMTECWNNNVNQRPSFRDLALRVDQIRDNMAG
assayExplanation: JAK2 biochemical assay (microfluidic mobility shift, peptide phosphorylation)
conditionSummary: Enzyme JAK2 Ki (nM), 25 μM ATP, 0.2 nM total JAK2
All answers are understood in nM, so give the number only.

CNS(=O)(=O)c1ccc(OC(F)F)c(-c2nn(C)cc2NC(=O)c2cnn3cccnc23)c1 ... 0.097
CN(C)CCS(=O)(=O)c1ccc(OC(F)F)c(-c2nn(C)cc2NC(=O)c2cnn3cccnc23)c1 ... 0.49
CN1CCCC1CCn1cc(S(=O)(=O)c2ccc(OC(F)F)c(-c3nn(C)cc3NC(=O)c3cnn4cccnc34)c2)cn1 (stereo in doubt) [Example 56] ... 0.76
CS(=O)(=O)c1ccc(OC(F)F)c(-c2nn(C3CCOC3=O)cc2NC(=O)c2cnn3cccnc23)c1 (single isomer, unassigned) [Example 33] ... 0.23
Cn1cnc(S(=O)(=O)c2ccc(OC(F)F)c(-c3nn(C)cc3NC(=O)c3cnn4cccnc34)c2)c1 ... 0.24

Now consider a different compound.
Problem: Given the compound Cn1cc(NC(=O)c2cnn3cccnc23)c(-c2cc(S(=O)(=O)c3cnn(CCN)c3)ccc2OC(F)F)n1 , write its reported Ki.
Result: 0.33

----------
assayExplanation: Cell cytotoxicity assay Jurkat (CellTiter-Glo, 72 hours)
Assay type: cell-based
conditionSummary: human, Jurkat clone E6-1 cells, Table 3; 72 hours, top concentration of 50 μM; read-out: Cytotox Jurkat EC50
assayReadout: EC50 at 72 h

CN1CCC[C@H]1Cn1cc(NC(=O)c2cnn3cccnc23)c(-c2cc(S(C)(=O)=O)ccc2OC(F)F)n1 ... 49 µM
CN1CCCC1CCn1cc(S(=O)(=O)c2ccc(OC(F)F)c(-c3nn(C)cc3NC(=O)c3cnn4cccnc34)c2)cn1 (stereo in doubt) ... 24 µM
CN(C)CCS(=O)(=O)c1ccc(OC(F)F)c(-c2nn(C)cc2NC(=O)c2cnn3cccnc23)c1 ... 2.1 µM

Problem: Tell me EC50 at 72 h reported for Cn1cc(NC(=O)c2cnn3cccnc23)c(-c2cc(S(=O)(=O)C3CCCNC3)ccc2OC(F)F)n1 (single isomer, unassigned)
Result: ≥ 50 µM

Problem: For the compound Cn1cc(NC(=O)c2cnn3cccnc23)c(-c2cc(S(=O)(=O)C3CC3)ccc2OC(F)F)n1 , report EC50 at 72 h.
Result: ≥ 50 µM

Problem: Give a short answer stating reported EC50 at 72 h for Cn1cc(NC(=O)c2cnn3cccnc23)c(-c2cc(S(=O)(=O)c3ccn(C)c(=O)c3)ccc2OC(F)F)n1 .
Result: 11 µM

Problem: Annotate the compound CC(CO)S(=O)(=O)c1ccc(OC(F)F)c(-c2nn(C)cc2NC(=O)c2cnn3cccnc23)c1 (single isomer, unassigned) with its measured EC50 at 72 h.
Result: 24 µM

Problem: State its EC50 at 72 h: CN(C)S(=O)(=O)c1ccc(OC(F)F)c(-c2nn(C)cc2NC(=O)c2cnn3cccnc23)c1
Result: 9.2 µM

Problem: Look up and state reported EC50 at 72 h for Cn1cc(NC(=O)c2cnn3cccnc23)c(-c2cc(S(=O)(=O)C3CCC3)ccc2OC(F)F)n1
Result: 38.5 µM

Problem: Fill in EC50 at 72 h for record Cn1cc(NC(=O)c2cnn3cccnc23)c(-c2cc(S(=O)(=O)c3ccccc3)ccc2OC(F)F)n1
Result: ≥ 50 µM

Problem: Return EC50 at 72 h for the following compound: COc1cccc(S(=O)(=O)c2ccc(OC(F)F)c(-c3nn(C)cc3NC(=O)c3cnn4cccnc34)c2)c1
Result: ≥ 50 µM

----------
testedTarget: recombinant human JAK1 kinase domain protein (Residues 854-1154) (Homo sapiens)
Construct: human JAK1 kinase domain protein (Residues 854-1154)
assayExplanation: JAK1 biochemical assay (microfluidic mobility shift, peptide phosphorylation)
conditionSummary: 25 μM ATP, 1 nM total JAK1; read-out: Enzyme JAK1 Ki
assayReadout: Ki (nM)
Numeric answer only, unit nM assumed.

CC(C)S(=O)(=O)c1ccc(OC(F)F)c(-c2nn(C)cc2NC(=O)c2cnn3cccnc23)c1 [Example 1] ... 0.56
Cn1cc(NC(=O)c2cnn3cccnc23)c(-c2cc(S(=O)(=O)C3CNC3)ccc2OC(F)F)n1 [Example 4] ... 1.4
C[C@H](O)Cn1cc(S(=O)(=O)c2ccc(OC(F)F)c(-c3nn(C)cc3NC(=O)c3cnn4cccnc34)c2)cn1 [Example 38] ... 0.34
N#CCn1cc(NC(=O)c2cnn3cccnc23)c(-c2cc(S(=O)(=O)C3COC3)ccc2OC(F)F)n1 [Example 51] ... 0.39
Cn1cc(NC(=O)c2cnn3cccnc23)c(-c2cc(S(=O)(=O)c3cncnc3)ccc2OC(F)F)n1 [Example 67] ... 0.48

Problem: Answer with reported Ki of COCCS(=O)(=O)c1ccc(OC(F)F)c(-c2nn(C)cc2NC(=O)c2cnn3cccnc23)c1 [Example 14]
Result: 0.49

Problem: Please list Ki recorded for the compound Cn1cc(NC(=O)c2cnn3cccnc23)c(-c2cc(S(=O)(=O)C(F)F)ccc2OC(F)F)n1 [Example 9]
Result: 0.27
